The measurements presented in this section are drawn from PubChem BioAssay (Tox21).

- Experimental Details: qHTS assay to identify small molecule antagonists of the farnesoid-X-receptor (FXR) signaling pathway - cell viability counter screen (AID 743221); further: nearly all actives have a fitted effect of over 50% in size
- Stated Conditions: FXR-bla HEK293T viability, CellTiter-Glo luminescence, 16 h; series mostly up to 62.6 µM
Results filed as inconclusive are left out. Activity calls are given as the source filed them. The call rests on the fitted dose curve; in most records, active means well fitted cell-killing curve with a large enough effect in the repeat runs (not every such curve was filed as active); inconclusive means weak or mixed curves, or effect the other way; inactive means no such curve, though single readings can be large or run the other way.
Assay Endpoint: outcome

Solved entries (count: 10):
Molecule | Value
O=NN(CCCl)C(=O)NCCCl | inactive
CC(=O)OCCC(C)CC(C)(C)C (stereo not given) | inactive
CCCCCCC(O)CCOC(C)=O (stereo not given) | inactive
Cc1ccc(S(=O)(=O)NC(=O)NC2CCCCC2)cc1 | inactive
CCCCC(CC)COS(=O)(=O)O (stereo not given) | inactive
Oc1cccc2[nH]ccc12 | inactive
CC(C)OC(=O)c1ccccc1C(=O)OC(C)C | inactive
Cc1c[nH]c2ccccc12 | inactive
CCCCCC | inactive
CC(C)C(O)C(C)(C)CO (stereo not given) | inactive

Identify measured outcome associated with "O=C(/C=C/c1ccc([N+](=O)[O-])cc1)c1ccccc1"
inactive

Report outcome, nothing else, for this molecule: "CC(C)(O)c1coc(S(=O)(=O)NC(=O)Nc2c3c(cc4c2CCC4)CCC3)c1"
inactive

Give outcome for CC1CCc2nccnc21 (stereo not given)
inactive

// Input: "O=P(O)(O)Oc1ccccc1" . Output its outcome only.
inactive

Supply measured outcome of "O=CNNC=O" in your reply.
inactive
